Target: 3-pTza peptide (Biotin-AminocaproicAcid-A.G.A.G.3-pTza.A.G.A.G)
Assay: BLI; biotinylated peptide captured on streptavidin biosensors at 20 nM; IgG in solution at 20-200 nM; Octet HTX; 1x HBS-T, 1% BSA
# maps each entry to its Kd
Just the number please, in nM, no unit attached.

Entry under test: hSC44.31 IgG (antibody, V domains shown) VH: EVQLVESGGGLVQPGGSLRLSCTASGFSIDSYGFSWVRQAPGKGLEHIGYLTAGGRAFYASWAKSRSTITRNTNENTVTLKMNSLRAEDTAVYYCAKLGTGTPFAIWGQGTLVTVSS VL: DIQMTQSPSSLSASVGDRVTITCRASQSVWRNKYVAWYQQKPGKAPKRLIYAIASLYSGVPSRFSGSGSGTDFTLTISSLQPEDFATYYCVGHYGSENDAYYAFGQGTKVEIK . Its Kd was 2.71

Next:
Entry under test: hSC44.28 IgG (antibody, V domains shown) VH: EVQLVESGGGLVQPGGSLRLSCTASGFSIDSYGFSWVRQAPGKGLEHIGYLTAGGRAFYASWAKSRSTITRNTNENTVTLKMNSLRAEDTAVYYCAKLGTGSPLAIWG VL: DIQMTQSPSSLSASVGDRVTITCRASQSVWRNKFVAWYQQKPGKAPKRLIYAIASLYSGVPSRFSGSGSGTDFTLTISSLQPEDFATYYCVGHYGSENDAYYAFGQGTKVEIK . Its Kd was 1.21
